Data origin: paper doi:10.1101/2024.08.19.608619

- assay_explanation: in vitro
- Design: Cytotoxicity in iPSC-derived pneumocytes, CC50
- setup_conditions: human, ipsc-derived pneumocytes; ASAP-0008327-001=ASAP-0008288-001; read-out: 50.0
readout_kind: CC50

>  <smiles>
CC(C)[C@@H](Nc1ncnc2[nH]c(-c3cnn(CC(N)=O)c3)cc12)c1ccc2c(c1)OCCO2

>  <readout_kind>
CC50

>  <experimental_result>
> 50 µM

$$$$

###

Reported IC50 values for a set of molecules
- subject_of_test: NaV1.5 (Homo sapiens, UniProt Q14524)
- Sequence (Q14524 whole entry): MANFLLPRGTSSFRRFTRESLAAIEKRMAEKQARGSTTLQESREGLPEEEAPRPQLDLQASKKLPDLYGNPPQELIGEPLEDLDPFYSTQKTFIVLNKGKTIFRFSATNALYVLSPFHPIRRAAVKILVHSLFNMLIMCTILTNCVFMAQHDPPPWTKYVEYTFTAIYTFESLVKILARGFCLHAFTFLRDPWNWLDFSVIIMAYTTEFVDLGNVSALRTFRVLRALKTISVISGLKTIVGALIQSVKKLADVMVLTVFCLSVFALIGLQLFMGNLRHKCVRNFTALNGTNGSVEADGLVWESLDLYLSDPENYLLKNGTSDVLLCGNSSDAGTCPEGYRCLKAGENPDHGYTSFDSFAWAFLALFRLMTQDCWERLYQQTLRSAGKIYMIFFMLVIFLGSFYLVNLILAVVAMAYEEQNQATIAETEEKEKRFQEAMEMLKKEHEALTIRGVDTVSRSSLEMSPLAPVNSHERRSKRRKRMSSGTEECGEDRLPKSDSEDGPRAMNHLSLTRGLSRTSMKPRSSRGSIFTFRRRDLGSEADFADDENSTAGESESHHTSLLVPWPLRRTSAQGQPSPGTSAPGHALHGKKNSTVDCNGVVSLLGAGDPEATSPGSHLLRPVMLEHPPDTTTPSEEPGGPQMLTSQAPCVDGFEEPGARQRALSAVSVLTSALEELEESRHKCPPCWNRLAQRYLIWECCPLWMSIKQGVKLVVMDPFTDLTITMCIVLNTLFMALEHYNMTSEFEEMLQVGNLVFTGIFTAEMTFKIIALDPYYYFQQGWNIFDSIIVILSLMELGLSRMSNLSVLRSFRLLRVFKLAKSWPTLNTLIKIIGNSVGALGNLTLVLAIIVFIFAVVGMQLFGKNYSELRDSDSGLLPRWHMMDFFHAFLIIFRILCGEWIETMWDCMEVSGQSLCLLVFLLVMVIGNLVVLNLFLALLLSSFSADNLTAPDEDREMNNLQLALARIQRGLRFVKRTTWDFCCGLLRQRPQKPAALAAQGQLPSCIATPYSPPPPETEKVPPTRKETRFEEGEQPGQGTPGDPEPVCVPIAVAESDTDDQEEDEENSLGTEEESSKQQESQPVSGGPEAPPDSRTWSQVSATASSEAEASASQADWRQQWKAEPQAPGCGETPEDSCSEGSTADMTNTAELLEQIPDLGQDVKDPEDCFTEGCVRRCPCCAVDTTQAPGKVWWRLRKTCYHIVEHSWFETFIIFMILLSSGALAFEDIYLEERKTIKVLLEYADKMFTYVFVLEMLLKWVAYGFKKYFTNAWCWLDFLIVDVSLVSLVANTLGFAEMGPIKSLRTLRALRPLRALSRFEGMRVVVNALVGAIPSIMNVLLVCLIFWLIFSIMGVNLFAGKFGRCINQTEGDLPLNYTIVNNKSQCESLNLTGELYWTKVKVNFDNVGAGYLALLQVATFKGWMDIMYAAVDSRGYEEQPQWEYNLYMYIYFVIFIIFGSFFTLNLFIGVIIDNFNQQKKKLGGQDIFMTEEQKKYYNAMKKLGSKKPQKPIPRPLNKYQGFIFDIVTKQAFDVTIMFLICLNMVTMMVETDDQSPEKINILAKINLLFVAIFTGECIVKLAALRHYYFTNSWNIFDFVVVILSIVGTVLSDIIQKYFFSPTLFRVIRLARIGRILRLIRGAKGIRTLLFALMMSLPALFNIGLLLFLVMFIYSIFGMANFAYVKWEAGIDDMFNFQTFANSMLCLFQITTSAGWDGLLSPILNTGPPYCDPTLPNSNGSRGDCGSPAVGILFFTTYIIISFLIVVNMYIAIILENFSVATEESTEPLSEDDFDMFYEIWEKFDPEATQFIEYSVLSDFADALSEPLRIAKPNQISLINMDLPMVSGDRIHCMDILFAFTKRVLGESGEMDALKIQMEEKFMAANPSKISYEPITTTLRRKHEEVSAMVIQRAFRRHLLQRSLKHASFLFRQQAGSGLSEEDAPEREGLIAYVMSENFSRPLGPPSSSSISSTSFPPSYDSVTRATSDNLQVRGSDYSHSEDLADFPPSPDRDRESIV
- assay_explanation: In vitro NaV1.5 cardiotoxicity
- setup_conditions: NaV1.5, rest state; top test concentration 30 uM; read-out: ic50_rest_state
readout_kind: IC50

>  <molecule>
CC(C)[C@H](Nc1ncnc2[nH]c(-c3cnn(C)c3C#N)cc12)c1ccc2c(n1)OCCO2 [ASAP-0010715]

>  <experimental_result>
> 30 µM

$$$$
>  <molecule>
CC(C)C(Nc1ncnc2[nH]c(C(=O)NC3CCN(C)C3)cc12)c1ccc2c(c1)S(=O)(=O)CCC2 (stereo not shown) [ASAP-0011198]

>  <experimental_result>
> 30 µM

$$$$
>  <molecule>
CC(C)[C@H](Nc1ncnc2[nH]ccc12)c1ccc2c(c1)S(=O)(=O)CCC2 [ASAP-0008674]

>  <experimental_result>
> 30 µM

$$$$
>  <molecule>
Cn1ncc(-c2cc3c(N[C@@H](c4ccc5c(n4)OCCO5)C(C)(C)C)ncnc3[nH]2)c1C#N [ASAP-0011221]

>  <experimental_result>
> 30 µM

$$$$

###

Reported Papp A→B values for a set of compounds
- Test system: MDR1
- assay_explanation: Permeability Papp (AB) MDR1/MDCKII
- setup_conditions: dog, MDCK-MDR1, papp_a_to_b_mean, In vitro MDR1-MDCKII permeability, A to B, mean

>  <compound>
CNC(=O)Cn1cc(-c2cc3c(NC(c4ccc5c(c4)OCCO5)C(C)C)ncnc3[nH]2)cn1 (stereo not shown)

>  <units>
×10⁻⁶ cm/s

>  <Papp A→B>
1.94

$$$$
>  <compound>
CCNC(=O)c1cc2c(NC(c3ccc4c(c3)OCCO4)C(C)C)ncnc2[nH]1 (stereo not shown)

>  <units>
×10⁻⁶ cm/s

>  <Papp A→B>
2.41

$$$$
>  <compound>
CC(C)C(Nc1ncnc2[nH]c(C(=O)NC3CCN(C)C3)cc12)c1ccc2c(c1)S(=O)(=O)CCC2 (stereo not shown)

>  <units>
×10⁻⁶ cm/s

>  <Papp A→B>
2.94

$$$$
>  <compound>
CC(C)C(Nc1ncnc2[nH]ccc12)c1ccc2c(c1)S(=O)(=O)CCC2 (stereo not shown)

>  <units>
×10⁻⁶ cm/s

>  <Papp A→B>
3.3

$$$$

###

- subject_of_test: SARS-CoV-2 nsp3-mac1 (Severe acute respiratory syndrome coronavirus 2)
- assay_explanation: biochemical
- Assay type: biochemical
- setup_conditions: SARS-CoV-2 nsp3 macrodomain TR-FRET single point; concentration 49.75 uM; n=2
Reported perc_inhibition_mean values for a set of molecules
readout_kind: perc_inhibition_mean (%)

>  <molecule>
Nc1ncnc2c1ncn2Cc1cccc2ncnn12 [ASAP-0000294]

>  <subject_of_test>
SARS-CoV-2 nsp3-mac1 (Severe acute respiratory syndrome coronavirus 2)

>  <readout_kind>
perc_inhibition_mean

>  <experimental_result>
-0.553

$$$$
>  <molecule>
N[C@@H]1CCC[C@@H](C(=O)N(CCC(=O)N2CCNCC2)Cc2cccc(Cl)c2)C1 [ASAP-0000325]

>  <subject_of_test>
SARS-CoV-2 nsp3-mac1 (Severe acute respiratory syndrome coronavirus 2)

>  <readout_kind>
perc_inhibition_mean

>  <experimental_result>
-0.755

$$$$
>  <molecule>
O=C(Nc1ccccc1)Nc1ccc(C(=O)NCCc2cccnc2)cc1 [ASAP-0000308]

>  <subject_of_test>
SARS-CoV-2 nsp3-mac1 (Severe acute respiratory syndrome coronavirus 2)

>  <readout_kind>
perc_inhibition_mean

>  <experimental_result>
1.269

$$$$
>  <molecule>
O=C(CCN(Cc1cccc(Cl)c1)C(=O)C1(O)CCCC1)N1CCNCC1 [ASAP-0000326]

>  <subject_of_test>
SARS-CoV-2 nsp3-mac1 (Severe acute respiratory syndrome coronavirus 2)

>  <readout_kind>
perc_inhibition_mean

>  <experimental_result>
-1.213

$$$$
>  <molecule>
Cc1n[nH]cc1CN(C)C(=O)c1ccc(NC(=O)Nc2ccccc2)cc1 [ASAP-0000300]

>  <subject_of_test>
SARS-CoV-2 nsp3-mac1 (Severe acute respiratory syndrome coronavirus 2)

>  <readout_kind>
perc_inhibition_mean

>  <experimental_result>
-3.77

$$$$
>  <molecule>
CCN(Cc1cccnc1)C(=O)c1ccc(NC(=O)Nc2ccccc2)cc1 [ASAP-0000299]

>  <subject_of_test>
SARS-CoV-2 nsp3-mac1 (Severe acute respiratory syndrome coronavirus 2)

>  <readout_kind>
perc_inhibition_mean

>  <experimental_result>
3.632

$$$$
>  <molecule>
O=C(NCc1cn[nH]c1)c1cnn2ccc(C3CCN(C(=O)c4ccccc4)CC3)cc12 [ASAP-0000341]

>  <subject_of_test>
SARS-CoV-2 nsp3-mac1 (Severe acute respiratory syndrome coronavirus 2)

>  <readout_kind>
perc_inhibition_mean

>  <experimental_result>
-2.366

$$$$
>  <molecule>
Cc1c(-c2cnc3nc[nH]c(=O)c3c2)ccc2[nH]ncc12 [ASAP-0000281]

>  <subject_of_test>
SARS-CoV-2 nsp3-mac1 (Severe acute respiratory syndrome coronavirus 2)

>  <readout_kind>
perc_inhibition_mean

>  <experimental_result>
-3.121

$$$$
>  <molecule>
Cn1nncc1C(=O)N(CCC(=O)N1CCNCC1)Cc1cccc(Cl)c1 [ASAP-0000333]

>  <subject_of_test>
SARS-CoV-2 nsp3-mac1 (Severe acute respiratory syndrome coronavirus 2)

>  <readout_kind>
perc_inhibition_mean

>  <experimental_result>
0.447

$$$$
>  <molecule>
Nc1ncc(C(=O)N(CCC(=O)N2CCNCC2)Cc2cccc(Cl)c2)cn1 [ASAP-0000319]

>  <subject_of_test>
SARS-CoV-2 nsp3-mac1 (Severe acute respiratory syndrome coronavirus 2)

>  <readout_kind>
perc_inhibition_mean

>  <experimental_result>
-2.76

$$$$
>  <molecule>
CCn1cc(CNC(=O)c2ccc(NC(=O)Nc3ccccc3)cc2)cn1 [ASAP-0000320]

>  <subject_of_test>
SARS-CoV-2 nsp3-mac1 (Severe acute respiratory syndrome coronavirus 2)

>  <readout_kind>
perc_inhibition_mean

>  <experimental_result>
-1.76

$$$$
>  <molecule>
Cc1nc(C(=O)N2CCC(c3ccn4ncc(C(=O)N5CCCCC5)c4c3)CC2)c(=O)[nH]c1C [ASAP-0000284]

>  <subject_of_test>
SARS-CoV-2 nsp3-mac1 (Severe acute respiratory syndrome coronavirus 2)

>  <readout_kind>
perc_inhibition_mean

>  <experimental_result>
26.409

$$$$
>  <molecule>
C[C@H](NC(=O)c1ccc(NC(=O)Nc2ccccc2)cc1)c1ccccn1 [ASAP-0000291]

>  <subject_of_test>
SARS-CoV-2 nsp3-mac1 (Severe acute respiratory syndrome coronavirus 2)

>  <readout_kind>
perc_inhibition_mean

>  <experimental_result>
2.448

$$$$
>  <molecule>
CC(C)n1nccc1NC(=O)c1ccc(NC(=O)Nc2ccccc2)cc1 [ASAP-0000322]

>  <subject_of_test>
SARS-CoV-2 nsp3-mac1 (Severe acute respiratory syndrome coronavirus 2)

>  <readout_kind>
perc_inhibition_mean

>  <experimental_result>
-1.998

$$$$
>  <molecule>
C[C@]1(C(=O)N(CCC(=O)N2CCNCC2)Cc2cccc(Cl)c2)CCCN1 [ASAP-0000312]

>  <subject_of_test>
SARS-CoV-2 nsp3-mac1 (Severe acute respiratory syndrome coronavirus 2)

>  <readout_kind>
perc_inhibition_mean

>  <experimental_result>
1.403

$$$$
>  <molecule>
CC(C)c1c[nH]nc1NC(=O)c1ccc(NC(=O)Nc2ccccc2)cc1 [ASAP-0000315]

>  <subject_of_test>
SARS-CoV-2 nsp3-mac1 (Severe acute respiratory syndrome coronavirus 2)

>  <readout_kind>
perc_inhibition_mean

>  <experimental_result>
6.988

$$$$
>  <molecule>
NCC(F)(F)CNC(=O)c1ccc(NC(=O)Nc2ccccc2)cc1 [ASAP-0000306]

>  <subject_of_test>
SARS-CoV-2 nsp3-mac1 (Severe acute respiratory syndrome coronavirus 2)

>  <readout_kind>
perc_inhibition_mean

>  <experimental_result>
-0.965

$$$$
>  <molecule>
O=C(Nc1ccccc1)Nc1ccc(C(=O)Nc2ncccc2F)cc1 [ASAP-0000313]

>  <subject_of_test>
SARS-CoV-2 nsp3-mac1 (Severe acute respiratory syndrome coronavirus 2)

>  <readout_kind>
perc_inhibition_mean

>  <experimental_result>
4.588

$$$$
>  <molecule>
CCc1n[nH]c(NC(=O)c2ccc(NC(=O)Nc3ccccc3)cc2)c1Br [ASAP-0000316]

>  <subject_of_test>
SARS-CoV-2 nsp3-mac1 (Severe acute respiratory syndrome coronavirus 2)

>  <readout_kind>
perc_inhibition_mean

>  <experimental_result>
-5.574

$$$$
>  <molecule>
O=C(c1cc(O)ccn1)N1CCC(c2ccn3ncc(C(=O)N4CCCCC4)c3c2)CC1 [ASAP-0000329]

>  <subject_of_test>
SARS-CoV-2 nsp3-mac1 (Severe acute respiratory syndrome coronavirus 2)

>  <readout_kind>
perc_inhibition_mean

>  <experimental_result>
17.623

$$$$
>  <molecule>
CC1(C)CN(C(=O)c2ccc(NC(=O)Nc3ccccc3)cc2)C[C@@]1(F)C(=O)O [ASAP-0000297]

>  <subject_of_test>
SARS-CoV-2 nsp3-mac1 (Severe acute respiratory syndrome coronavirus 2)

>  <readout_kind>
perc_inhibition_mean

>  <experimental_result>
-2.566

$$$$
>  <molecule>
CNC[C@@H]1CCCN1C(=O)c1cnn2ccc(C3CCN(C(=O)c4ccccc4)CC3)cc12 [ASAP-0000338]

>  <subject_of_test>
SARS-CoV-2 nsp3-mac1 (Severe acute respiratory syndrome coronavirus 2)

>  <readout_kind>
perc_inhibition_mean

>  <experimental_result>
-1.474

$$$$
>  <molecule>
Cc1nccc(C(=O)N2CCC(c3ccn4ncc(C(=O)N5CCCCC5)c4c3)CC2)n1 [ASAP-0000327]

>  <subject_of_test>
SARS-CoV-2 nsp3-mac1 (Severe acute respiratory syndrome coronavirus 2)

>  <readout_kind>
perc_inhibition_mean

>  <experimental_result>
16.537

$$$$
>  <molecule>
Cc1n[nH]nc1C(=O)N1CCC(c2ccn3ncc(C(=O)N4CCCCC4)c3c2)CC1 [ASAP-0000283]

>  <subject_of_test>
SARS-CoV-2 nsp3-mac1 (Severe acute respiratory syndrome coronavirus 2)

>  <readout_kind>
perc_inhibition_mean

>  <experimental_result>
29.33

$$$$
>  <molecule>
C[C@H](NC(=O)c1ccc(NC(=O)Nc2ccccc2)cc1)[C@@H]1CCCO1 [ASAP-0000289]

>  <subject_of_test>
SARS-CoV-2 nsp3-mac1 (Severe acute respiratory syndrome coronavirus 2)

>  <readout_kind>
perc_inhibition_mean

>  <experimental_result>
-4.279

$$$$
>  <molecule>
CN1CCC[C@@H]1CNC(=O)c1cnn2ccc(C3CCN(C(=O)c4ccccc4)CC3)cc12 [ASAP-0000349]

>  <subject_of_test>
SARS-CoV-2 nsp3-mac1 (Severe acute respiratory syndrome coronavirus 2)

>  <readout_kind>
perc_inhibition_mean

>  <experimental_result>
-4.432

$$$$
>  <molecule>
Cc1ncc(C(=O)N(CCC(=O)N2CCNCC2)Cc2cccc(Cl)c2)cc1N [ASAP-0000314]

>  <subject_of_test>
SARS-CoV-2 nsp3-mac1 (Severe acute respiratory syndrome coronavirus 2)

>  <readout_kind>
perc_inhibition_mean

>  <experimental_result>
1.351

$$$$
>  <molecule>
O=C(c1cnc[nH]1)N1CCC(c2ccn3ncc(C(=O)N4CCCCC4)c3c2)CC1 [ASAP-0000345]

>  <subject_of_test>
SARS-CoV-2 nsp3-mac1 (Severe acute respiratory syndrome coronavirus 2)

>  <readout_kind>
perc_inhibition_mean

>  <experimental_result>
20.282

$$$$
>  <molecule>
Cn1c(C(=O)N(CCC(=O)N2CCNCC2)Cc2cccc(Cl)c2)cnc1O [ASAP-0000321]

>  <subject_of_test>
SARS-CoV-2 nsp3-mac1 (Severe acute respiratory syndrome coronavirus 2)

>  <readout_kind>
perc_inhibition_mean

>  <experimental_result>
-4.765

$$$$
>  <molecule>
CN1CCO[C@H](CNC(=O)c2ccc(NC(=O)Nc3ccccc3)cc2)C1 [ASAP-0000293]

>  <subject_of_test>
SARS-CoV-2 nsp3-mac1 (Severe acute respiratory syndrome coronavirus 2)

>  <readout_kind>
perc_inhibition_mean

>  <experimental_result>
-0.616

$$$$
>  <molecule>
Nc1c(O)cccc1C(=O)N(CCC(=O)N1CCNCC1)Cc1cccc(Cl)c1 [ASAP-0000336]

>  <subject_of_test>
SARS-CoV-2 nsp3-mac1 (Severe acute respiratory syndrome coronavirus 2)

>  <readout_kind>
perc_inhibition_mean

>  <experimental_result>
-1.238

$$$$
>  <molecule>
CN(C(=O)c1ccc(NC(=O)Nc2ccccc2)cc1)[C@@H]1CN2CCC1CC2 [ASAP-0000292]

>  <subject_of_test>
SARS-CoV-2 nsp3-mac1 (Severe acute respiratory syndrome coronavirus 2)

>  <readout_kind>
perc_inhibition_mean

>  <experimental_result>
-4.01

$$$$
>  <molecule>
O=C(c1ccccc1)N1CCC(c2ccn3ncc(C(=O)N4CCc5nc[nH]c5C4)c3c2)CC1 [ASAP-0000280]

>  <subject_of_test>
SARS-CoV-2 nsp3-mac1 (Severe acute respiratory syndrome coronavirus 2)

>  <readout_kind>
perc_inhibition_mean

>  <experimental_result>
11.216

$$$$
>  <molecule>
Cc1cocc1C(=O)N(CCC(=O)N1CCNCC1)Cc1cccc(Cl)c1 [ASAP-0000332]

>  <subject_of_test>
SARS-CoV-2 nsp3-mac1 (Severe acute respiratory syndrome coronavirus 2)

>  <readout_kind>
perc_inhibition_mean

>  <experimental_result>
1.398

$$$$
